- Experimental details: NCI Yeast Anticancer Drug Screen. Data for the sgs1 mgt1 strain (AID 161)
- Run parameters: S. cerevisiae sgs1 mgt1 strain, at 50.0 µM, active compounds read high
Compounds without any hit were thinned out: in the full panel of roughly 79,000, 15% have a hit.
Where growth inhibition equals or exceeds 60%, the correct label is Fulfilled; where it does not, the label is Not fulfilled.

Compound: CN(NC(=O)/C(=C/c1ccc2c(c1)OCO2)NC(=O)c1ccccc1)c1ccnc2cc(Cl)ccc12
Answer label: Fulfilled

Compound: Ic1ccc2c(c1)N(c1ccccc1)c1cc(N=c3ccc4nc5ccc(I)cc5n(-c5ccccc5)c-4c3)ccc1N2
Answer label: Fulfilled

Compound: COc1nc2nc(Cl)cc(C)c2c2ccccc12 (tested in a mixture with another compound)
Answer label: Not fulfilled

Compound: C/C(C=C(C#N)C#N)=C\c1ccc([N+](=O)[O-])cc1
Answer label: Fulfilled

Compound: CCCCCCCCCCC(O)CN1CCN(c2cccc(Cl)c2)CC1 (centres undefined)
Answer label: Fulfilled

Compound: CC1=C(C)C(=O)C(C(C)(C)CC(=O)n2cc(F)c(=O)[nH]c2=O)=C(C)C1=O
Answer label: Fulfilled

Compound: CC(=O)Oc1ccc2ccccc2c1CN(Cc1c(OC(C)=O)ccc2ccccc12)C(C)=O
Answer label: Fulfilled

Compound: CCCCCCCCCCCCCC(=O)OCCCC1CCCO1 (centres undefined)
Answer label: Not fulfilled

Compound: Cc1cc2ccc(N)nc2[nH]c1=O
Answer label: Not fulfilled

Compound: O=C(N/N=C/c1cc(Cl)cc(Cl)c1O)c1ccccc1
Answer label: Fulfilled

Compound: COc1ccc2c(N3CCN(C(=O)C(Cl)(Cl)Cl)CC3)cc(C)nc2c1
Answer label: Not fulfilled

Compound: CCCC(=O)C1=C(O)C(Cc2c(O)c(C)c(O)c(C(=O)CCC)c2O)=C(O)C(C)(C)C1=O
Answer label: Fulfilled

Compound: CC(C)(C)C1=CC(N2CCCCC2)(C(C)(C)C)C=C(C(C)(C)C)C1=O
Answer label: Fulfilled

Compound: CCOc1ccc2c(c1)[n+]([O-])c(S(=O)(=O)c1ccc(C)cc1)c(N)[n+]2[O-]
Answer label: Fulfilled

Compound: O=C1C(Sc2ccc3ccccc3c2)=C(Sc2ccc3ccccc3c2)C(=O)c2ccccc21
Answer label: Fulfilled

Compound: CCCC1=C(c2ccccc2)C(O)(c2ccccc2)C(CCC)C1=O (centres undefined)
Answer label: Fulfilled

Compound: CC(=O)Nc1ccc(-c2nnc(SCC(=O)Nc3ccc([N+](=O)[O-])cc3)o2)cc1
Answer label: Not fulfilled

Compound: C[C@]12C[C@@H](c3ccccc3)Nc3ccccc3N1C(c1ccccc1)=NO2
Answer label: Fulfilled

Compound: O=C1OC(c2ccccc2)=N/C1=C\c1ccc(Oc2ccc(Cl)c(Cl)c2)cc1
Answer label: Fulfilled

Compound: CCCC(C)C/C(C)=C\C(C)(C)C1CC(=O)N(CC)C1=O (centres undefined)
Answer label: Fulfilled

Compound: COc1ccccc1Nc1nc(SC)ncc1SC
Answer label: Fulfilled

Compound: CC(CN(C)C)C(=O)/C=C/c1c(Cl)cccc1Cl (centres undefined)
Answer label: Fulfilled

Compound: Oc1c(Br)ccc2c(O)c(Br)ccc12
Answer label: Fulfilled

Compound: CCC(C)c1ccc(O)c(C(C)c2ccccc2)c1 (centres undefined)
Answer label: Fulfilled

Compound: Cc1cc2nc(-c3ccccc3[N+](=O)[O-])[nH]c2cc1C
Answer label: Not fulfilled

Compound: S=c1nc(C(c2ccccc2)c2ccccc2)[nH][nH]1
Answer label: Not fulfilled

Compound: CC[C@@]1(O)C[C@H](OC2CC(N(C)C)C(OC3CC(O)C(OC4CCC(=O)C(C)O4)C(C)O3)C(C)O2)c2c(cc3c(c2O)C(=O)c2c(O)cccc2C3=O)[C@H]1C(=O)OC (some centres undefined)
Answer label: Fulfilled

Compound: CCCCCCCCCCCCNC(=O)c1ccc[n+](Cc2ccc(Cl)c(Cl)c2)c1
Answer label: Fulfilled

Compound: Oc1ccc(-c2nnc(-c3ccccc3)nn2)cc1
Answer label: Not fulfilled

Compound: NC(=S)N/N=C/c1ccc([N+](=O)[O-])o1
Answer label: Fulfilled

Compound: COc1ccnc(-c2cc(OC)cc(/C(N)=N/O)n2)c1
Answer label: Fulfilled

Compound: C1=C(c2ccccc2)OC(c2ccccc2)=C[P+]1(c1ccccc1)c1ccccc1
Answer label: Fulfilled

Compound: CCC(C)(C)C(=O)OCC(=O)c1ccc(-c2ccccc2)cc1
Answer label: Not fulfilled

Compound: c1ccc([P+](c2ccccc2)(c2ccccc2)C2CCCCO2)cc1 (centres undefined)
Answer label: Not fulfilled

Compound: CCOC(=O)N1CCN(CCCCCCOc2c(Cl)cc(Cl)cc2Cl)CC1
Answer label: Fulfilled

Compound: CCc1ccc(C(=O)O)cc1
Answer label: Not fulfilled

Compound: O=C1c2cccc(O)c2C(=O)c2c(O)cc(CO)cc21
Answer label: Fulfilled

Compound: CN(C)c1nc(N(C)C)sc(=O)n1
Answer label: Fulfilled

Compound: COc1ccc(Br)c2c1CC(C(=O)O)CC2 (centres undefined)
Answer label: Not fulfilled

Compound: Nc1nc(N)c2nc(CNc3ccc(C(=O)NC(CCC(=O)O)C(=O)O)cc3)ccc2n1 (centres undefined)
Answer label: Not fulfilled

Compound: OCCN1COc2cc3c(cc2C1)OCN(CCO)C3
Answer label: Not fulfilled

Compound: CCCC/C(=N/Nc1ccc([N+](=O)[O-])cc1)C(=O)O
Answer label: Fulfilled

Compound: COc1cc(/C=C2\CCc3ccccc3C2=O)ccc1O
Answer label: Fulfilled

Where these numbers come from: PubChem BioAssay (NCI)
